Tested on: AncSZ
protocol: phosphorylation enrichment, bacterial display (enrichment ratio); higher = better substrate or ligand; peptides without Tyr show the background
Label satisfied when phosphorylation enrichment >= 1; otherwise not satisfied.

GHLYANDWISI [BEST1_Y227_Y227N] : not satisfied
VHNLDYYKQTT [FGFR3_Y647_K650Q] : not satisfied
KWTVDYLGQVG [TYW5_Y48_S50G] : not satisfied
IHFAIYFLKYS [ARMC9_Y107_L108F] : satisfied
RVLKLYGCSPS [ASTL_Y279] : satisfied
SLLVVYPWTQR [HBB_Y36_R31S] : satisfied
HFIKLYEEKTG [PARP1_Y618_M615I] : satisfied
TFGVVYKARNK [CDK2_Y19_YF] : not satisfied

Now examine the next entry.
Lookup: Threshold query (phosphorylation enrichment >= 1) on LSVEIHDRREF [ITGB7_Y753_Y753H_YF]
Found: satisfied

---

Provide the recorded SH2 binding enrichment for the entries that follow.
test.target: Grb2 SH2 (UniProt P62993)
Sequence (P62993 whole entry, looked up): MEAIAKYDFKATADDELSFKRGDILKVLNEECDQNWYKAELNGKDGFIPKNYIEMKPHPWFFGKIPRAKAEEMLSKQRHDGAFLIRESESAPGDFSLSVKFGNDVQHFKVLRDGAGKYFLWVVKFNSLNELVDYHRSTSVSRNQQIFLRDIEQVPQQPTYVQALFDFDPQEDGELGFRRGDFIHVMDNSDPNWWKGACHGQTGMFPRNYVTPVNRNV
protocol: SH2 binding enrichment of the phosphorylated peptide, bacterial display (enrichment ratio); higher = better substrate or ligand; peptides without Tyr show the background
One number for each entry.

KIDAKYKKKIE [WDR19_Y1230] : 0.601
RLQEDYDHSFF [ESD_Y258_G257D_YF] : 0.901
QWLEQYTQAIE [LSP1_Y234] : 0.876

Working through the 5 sequences below one at a time, give SH2 binding enrichment for each.
1. MGRVKYGAFIN [GLB1_Y485_N484K_YF]
2. PFDAEYGGGGG [AKR1B10_Y316_N313D]
3. GCAGKYIAMVM [CYP19A1_Y441]
4. YEEDSYVTRSQ [RET_Y905_K907T]
5. SDYYAYSPVRE [H6PD_Y449]

Found:
1. 1.62
2. 0.747
3. 0.875
4. 0.906
5. 1.06

Please look at the items below and tell me SH2 binding enrichment for each one, in order.
1. ALDRPYTSKHS [NANS_Y71_E68D]
2. VPVDGYISGLL [PAK6_Y81_M76V]
3. RKPDIYGRLAS [MCM4_Y459_E460G]
4. FSMGCYEIFLG [HMGCL_Y198_S201Y_YF]
5. PSQRRYLFFFS [PTEN_Y174_V175L_YF]
6. AAVDNYCRHNY [HLA-DRB1_Y107_T106N]
7. YFVVEYRNQKP [MUC17_Y4332_D4334N]
8. MDNQEYKDAYK [BRDT_Y331]

Found:
1: 0.926; 2: 0.893; 3: 1.16; 4: 0.938; 5: 0.936; 6: 0.765; 7: 1.58; 8: 0.814

---

test.target: Hck (UniProt P08631)
Sequence (P08631 whole entry, looked up): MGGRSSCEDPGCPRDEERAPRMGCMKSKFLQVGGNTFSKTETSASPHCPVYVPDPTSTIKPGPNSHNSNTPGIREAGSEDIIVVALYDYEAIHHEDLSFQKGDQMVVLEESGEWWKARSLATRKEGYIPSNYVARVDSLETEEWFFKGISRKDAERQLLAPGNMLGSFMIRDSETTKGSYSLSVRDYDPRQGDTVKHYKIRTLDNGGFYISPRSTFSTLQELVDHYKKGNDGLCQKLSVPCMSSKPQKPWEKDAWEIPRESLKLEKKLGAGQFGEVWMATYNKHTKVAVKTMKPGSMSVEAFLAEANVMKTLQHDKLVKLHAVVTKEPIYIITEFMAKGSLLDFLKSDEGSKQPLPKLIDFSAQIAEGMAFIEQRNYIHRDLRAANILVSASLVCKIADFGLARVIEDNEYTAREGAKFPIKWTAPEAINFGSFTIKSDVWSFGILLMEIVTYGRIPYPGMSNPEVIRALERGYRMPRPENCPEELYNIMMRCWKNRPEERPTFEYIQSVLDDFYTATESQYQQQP
protocol: phosphorylation enrichment, bacterial display (enrichment ratio); higher = better substrate or ligand; peptides without Tyr show the background
Assign phosphorylation enrichment to each entry below.
Numbers only.

As a guide, the following entries are already answered.
AIIGIYILRDN [CDH23_Y2949_D2954N] : 1.6
GEDLSYGDVPP [IRS1_Y151] : 0.556
RMETEYGPSVT [MXRA5_Y2717] : 0.752
FSEVRYMKEPF [HIPK4_Y170_V171M_YF] : 0.438
EEQKKYYNAVK [SCN5A_Y1494_M1498V] : 0.496
AIGCEYSEINI [SIGLEC12_Y588_Y586C] : 2.42

# return phosphorylation enrichment for each item in the list
1. FSKQIYKGMVA [PCDH15_Y931_R929Q]
2. LGRGKSSEVFE [CSNK2A1_Y50_Y50S]
3. DWQQEYVLNES [TGM1_Y267_R264Q]

Found:
1. 0.384
2. 0.517
3. 0.6

---

test.target: FGFR1 (UniProt P11362)
Sequence (P11362 whole entry, looked up): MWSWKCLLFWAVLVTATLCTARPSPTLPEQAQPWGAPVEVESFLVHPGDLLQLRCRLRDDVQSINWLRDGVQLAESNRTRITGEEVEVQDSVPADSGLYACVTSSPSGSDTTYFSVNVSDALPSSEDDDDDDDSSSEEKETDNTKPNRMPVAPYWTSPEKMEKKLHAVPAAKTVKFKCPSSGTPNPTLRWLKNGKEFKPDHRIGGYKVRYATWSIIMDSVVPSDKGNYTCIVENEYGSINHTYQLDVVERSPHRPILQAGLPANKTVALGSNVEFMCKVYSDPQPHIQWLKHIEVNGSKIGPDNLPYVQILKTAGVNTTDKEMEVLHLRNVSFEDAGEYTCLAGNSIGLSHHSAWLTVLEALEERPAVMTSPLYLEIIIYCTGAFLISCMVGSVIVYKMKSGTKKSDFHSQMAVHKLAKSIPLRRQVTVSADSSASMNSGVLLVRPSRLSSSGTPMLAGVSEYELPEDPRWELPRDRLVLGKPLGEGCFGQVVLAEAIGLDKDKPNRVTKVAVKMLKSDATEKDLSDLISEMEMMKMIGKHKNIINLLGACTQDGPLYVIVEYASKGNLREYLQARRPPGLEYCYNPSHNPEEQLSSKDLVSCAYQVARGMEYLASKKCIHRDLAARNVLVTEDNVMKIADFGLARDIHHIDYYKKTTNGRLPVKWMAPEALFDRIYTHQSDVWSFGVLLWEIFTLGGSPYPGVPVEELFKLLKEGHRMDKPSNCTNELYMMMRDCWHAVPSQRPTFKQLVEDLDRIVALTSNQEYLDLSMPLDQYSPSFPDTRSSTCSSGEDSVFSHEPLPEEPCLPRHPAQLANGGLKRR
protocol: phosphorylation enrichment, bacterial display (enrichment ratio); higher = better substrate or ligand; peptides without Tyr show the background
For each entry below, report its phosphorylation enrichment value.
One number for each entry.

QHVPDYRQNGF [PCDHGA1_Y890_V894G_YF] : 0.55
CTLSVYRQLHN [LUZP1_Y1036] : 0.513

Turning now to a further record.
Lookup: For the sequence DYSLKYPTDIP [APC_Y1183_A1184P] , give its measured phosphorylation enrichment value.
Found: 0.691

---

Consider the following sequences; for each one, report its SH2 binding enrichment.
test.target: SHP2-C SH2
protocol: SH2 binding enrichment of the phosphorylated peptide, bacterial display (enrichment ratio); higher = better substrate or ligand; peptides without Tyr show the background
One number for each entry.

Worked set:
AAVDNYCRHNY [HLA-DRB1_Y107_T106N] : 0.72
RDMNAYISPSP [MMAA_Y207_R209S] : 0.715

Please turn your attention to the following entry.
Lookup: Report measured SH2 binding enrichment on SHP2-C SH2; entry: CRVEPYGENFN [APOA4_Y310_R305C]
Found: 0.712

---

test.target: MERTK (UniProt Q12866)
Sequence (Q12866 whole entry, looked up): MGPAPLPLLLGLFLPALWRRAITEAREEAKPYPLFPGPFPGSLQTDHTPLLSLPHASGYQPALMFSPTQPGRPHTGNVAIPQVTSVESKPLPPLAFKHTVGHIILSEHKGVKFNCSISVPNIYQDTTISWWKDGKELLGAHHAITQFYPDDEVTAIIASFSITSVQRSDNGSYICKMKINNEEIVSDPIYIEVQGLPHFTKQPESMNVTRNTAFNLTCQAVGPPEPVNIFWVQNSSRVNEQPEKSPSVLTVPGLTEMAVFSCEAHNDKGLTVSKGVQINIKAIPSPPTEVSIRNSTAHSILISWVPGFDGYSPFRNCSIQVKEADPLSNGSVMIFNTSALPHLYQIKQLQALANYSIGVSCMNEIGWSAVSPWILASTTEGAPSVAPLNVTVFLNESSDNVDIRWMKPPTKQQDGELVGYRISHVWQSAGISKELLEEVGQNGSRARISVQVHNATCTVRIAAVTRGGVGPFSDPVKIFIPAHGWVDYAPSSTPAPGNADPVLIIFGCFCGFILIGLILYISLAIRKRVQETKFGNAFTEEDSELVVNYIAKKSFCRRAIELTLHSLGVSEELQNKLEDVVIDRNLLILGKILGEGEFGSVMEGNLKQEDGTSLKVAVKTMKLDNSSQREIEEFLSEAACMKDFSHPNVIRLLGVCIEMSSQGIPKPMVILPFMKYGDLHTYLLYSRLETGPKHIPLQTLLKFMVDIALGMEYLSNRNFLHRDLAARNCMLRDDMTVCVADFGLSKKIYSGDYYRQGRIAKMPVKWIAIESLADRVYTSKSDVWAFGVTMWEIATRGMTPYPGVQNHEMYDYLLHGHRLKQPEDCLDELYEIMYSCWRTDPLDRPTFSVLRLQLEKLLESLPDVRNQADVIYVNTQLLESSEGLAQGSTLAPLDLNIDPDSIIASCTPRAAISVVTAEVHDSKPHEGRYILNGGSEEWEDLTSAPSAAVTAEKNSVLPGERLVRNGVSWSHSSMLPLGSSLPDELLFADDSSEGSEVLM
protocol: phosphorylation enrichment, bacterial display (enrichment ratio); higher = better substrate or ligand; peptides without Tyr show the background
value.type: phosphorylation enrichment
Answers are plain numbers.

Here's what some known entries look like.
DNEYAYLKAII [HNF4A_Y288] : 0.603
SLHPGYNFRFA [P2RX7_Y291_Y288H_YF] : 0.394
AEYGLYGAMVR [VSX2_Y222] : 1.97
NTYENYWPFYQ [GATM_Y103_K102N] : 9.93
VTVLDYDKTGK [SYT1_Y365_I368T] : 0.335

Hi team, please reply with phosphorylation enrichment for each item in this list.
1. AELVQYFMEHH [PTPN11_Y80_YF]
2. VCDSDYSASRW [LRP5_Y1552]

Found:
1: 0.508; 2: 0.382

---

test.target: Jak2 (UniProt O60674)
Sequence (O60674 whole entry, looked up): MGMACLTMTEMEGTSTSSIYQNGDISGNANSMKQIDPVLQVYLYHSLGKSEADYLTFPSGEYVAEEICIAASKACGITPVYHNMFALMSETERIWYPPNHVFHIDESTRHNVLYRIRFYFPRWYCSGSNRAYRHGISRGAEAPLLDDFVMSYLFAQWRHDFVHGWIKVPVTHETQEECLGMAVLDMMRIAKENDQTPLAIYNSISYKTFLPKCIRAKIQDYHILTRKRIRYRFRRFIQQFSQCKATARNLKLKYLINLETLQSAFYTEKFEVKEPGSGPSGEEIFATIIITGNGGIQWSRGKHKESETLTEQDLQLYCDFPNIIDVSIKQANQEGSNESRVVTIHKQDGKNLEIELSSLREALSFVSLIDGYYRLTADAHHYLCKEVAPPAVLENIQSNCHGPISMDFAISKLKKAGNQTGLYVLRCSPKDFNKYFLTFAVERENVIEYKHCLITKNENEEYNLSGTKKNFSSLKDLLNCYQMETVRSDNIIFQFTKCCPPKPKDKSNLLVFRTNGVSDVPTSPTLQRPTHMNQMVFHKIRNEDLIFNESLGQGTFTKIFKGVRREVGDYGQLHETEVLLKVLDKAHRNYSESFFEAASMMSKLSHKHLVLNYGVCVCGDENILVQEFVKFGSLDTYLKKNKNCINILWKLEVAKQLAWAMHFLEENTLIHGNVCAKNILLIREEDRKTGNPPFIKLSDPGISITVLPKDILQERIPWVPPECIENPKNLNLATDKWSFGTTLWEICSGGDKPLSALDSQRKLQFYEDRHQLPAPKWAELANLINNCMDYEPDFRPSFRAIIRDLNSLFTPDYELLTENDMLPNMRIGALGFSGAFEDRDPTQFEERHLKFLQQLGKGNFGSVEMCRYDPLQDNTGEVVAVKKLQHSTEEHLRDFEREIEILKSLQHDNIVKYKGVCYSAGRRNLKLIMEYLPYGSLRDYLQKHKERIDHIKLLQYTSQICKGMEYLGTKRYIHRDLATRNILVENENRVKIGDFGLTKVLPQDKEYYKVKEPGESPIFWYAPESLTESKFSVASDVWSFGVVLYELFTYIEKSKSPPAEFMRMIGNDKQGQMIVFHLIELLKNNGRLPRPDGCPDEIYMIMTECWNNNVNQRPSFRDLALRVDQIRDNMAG
protocol: phosphorylation enrichment, bacterial display (enrichment ratio); higher = better substrate or ligand; peptides without Tyr show the background
Outcome: criterion met for phosphorylation enrichment of at least 0.8; criterion not met for anything lower.

Completed entries (count: 3):
FADIAYNYRQG [PAH_Y166_H170Q] : criterion not met
KPGVNYFFQVS : criterion met
SHLSSYTTHPQ [NIPBL_Y195_P192L] : criterion not met

Lookup: Threshold query (phosphorylation enrichment >= 0.8) on NLFIEYPTGSG [IRF2BPL_Y423_K418N]
Found: criterion met

Lookup: Evaluate GQAPGYSFTAA [CYCS_Y47_YF] : phosphorylation enrichment at minimum 0.8?
Found: criterion not met

Lookup: For this sequence, is measured phosphorylation enrichment 0.8 or higher? RHPEVYHHLGI [NVL_Y290_V295I]
Found: criterion met

Lookup: Reported phosphorylation enrichment at or above 0.8? SRNKPYISWPS [CDC42BPB_Y1638]
Found: criterion met

Lookup: Could you tell me if the measured phosphorylation enrichment of KFGTNYRVGSS [CPO_Y278_YF] reaches 0.8 or more?
Found: criterion not met

---

test.target: Hck (UniProt P08631)
protocol: phosphorylation enrichment, bacterial display (enrichment ratio); higher = better substrate or ligand; peptides without Tyr show the background
value.type: phosphorylation enrichment
Give bare numbers.

The following sequences have reported results that may help.
LSNFNYEQRGA [API5_Y497_G493S] : 0.509
HEDPMYDIIRD [RP9_Y142] : 5.56
QFPDIYAREEV [CRX_Y67_V66I_YF] : 1.56

Batch of 7 sequences: report phosphorylation enrichment for each.
1. SVTCTFSPALN [TP53_Y126_Y126F]
2. RGEKQYLAAPL [ALOX12_Y295]
3. THLAPYSDELR [APOA1_Y190]
4. SVTCTYSPALI [TP53_Y126_N131I]
5. QHVPDYRQNVF [PCDHGA1_Y890_YF]
6. VHNLDYYKQTT [FGFR3_Y647_K650Q]
7. RRAKGYPINLF [ITGB2_Y125_D128N_YF]

Found:
1: 0.621; 2: 0.545; 3: 0.481; 4: 0.804; 5: 0.585; 6: 0.485; 7: 0.448

---

test.target: SHP2-C SH2
protocol: SH2 binding enrichment of the phosphorylated peptide, bacterial display (enrichment ratio); higher = better substrate or ligand; peptides without Tyr show the background
Hi, to clarify the labels: fulfilled covers SH2 binding enrichment from 0.8 upward, not fulfilled covers anything below 0.8.

These recorded examples may help you get a feel for the data.
NTILLYHIMAW [GPR143_Y157_S152N] : fulfilled
GMSQAYSFSQR [DES_Y5_S7F] : not fulfilled

Lookup: Determine whether this sequence has SH2 binding enrichment no lower than 0.8: YDGKDYIALNE [HLA-A_Y147]
Found: not fulfilled

Lookup: Is reported SH2 binding enrichment greater than or equal to 0.8 here: HCEDGYPGGSD [CTNND1_Y221_Y217C]
Found: not fulfilled

Lookup: Is it the case that EEGENYQKGEQ [CHGB_Y173_R178Q] has SH2 binding enrichment reaching or exceeding 0.8?
Found: not fulfilled
